Data provenance is patent US10077241B2.

Biological target: TGR5 (STC1 cell line) (Mus musculus)
Sequence (Q80SS6 1-329): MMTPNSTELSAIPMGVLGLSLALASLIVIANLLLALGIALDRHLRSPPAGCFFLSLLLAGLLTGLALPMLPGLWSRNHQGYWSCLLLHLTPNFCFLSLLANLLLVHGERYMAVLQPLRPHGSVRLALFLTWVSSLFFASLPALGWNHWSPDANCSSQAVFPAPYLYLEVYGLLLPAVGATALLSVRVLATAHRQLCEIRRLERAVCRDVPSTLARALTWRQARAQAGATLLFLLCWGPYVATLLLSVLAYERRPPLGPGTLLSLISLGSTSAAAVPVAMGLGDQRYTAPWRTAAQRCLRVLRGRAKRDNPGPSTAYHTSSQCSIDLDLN
Test: STC1 cAMP Agonist EC50 Determination
pEC50: −log10 of the molar value. Where a name gives a salt, the structure may show the parent alone.
quantity-kind: pEC50

// solved cases for pEC50 follow
COc1ccc(C2(C)CCCc3nc(SCc4ccccc4)n(-c4ccc(F)cc4)c32)cc1OC (stereo not shown) [Example 99]    5.62
COc1cc(C2(C)CCCc3nc(SCc4c(F)cc(C(=O)N5CCOCC5)cc4F)n(-c4ccc(F)cc4)c32)ccc1F (stereo not shown) [Example 122]    7.05
COc1cc(C2CCCc3nc(SCc4c(F)cccc4C(F)(F)F)n(-c4ccc(F)cc4)c32)ccc1Cl (stereo not shown) [Example 15]    4.88

(I) COc1cc(C2(C)CCCc3nc(SCc4c(F)ccc(OCCN(C)C)c4F)n(-c4ccc(F)cc4)c32)ccc1Cl (stereo not shown) [Example 96, trifluoroacetic acid]
(II) COc1ccc(C2(C)CCCc3nc(SCc4c(F)cc(C#N)cc4F)n(-c4ccc(F)cc4)c32)cc1OC (stereo not shown) [Example 102]
(III) COc1ccc(C2CCCc3nc(SCc4c(F)cc(OCCCl)cc4F)n(-c4ccc(F)cc4)c32)cc1OC (stereo not shown) [Example 67]
(IV) COc1cc(C2(C)CCCc3nc(SCc4c(F)cc(C(=O)NCCOCCOCCOCCO)cc4F)n(-c4ccc(F)cc4)c32)ccc1F (stereo not shown) [Example 123]
Hey, quick one: sort these by pEC50, largest value first please. Present the labels in the sequence the task asks for.
II, IV, III, I
(II: 7.52, IV: 7.30, III: 6.30, I: 4.87)

(1) COc1cc(C2CCCc3nc(SCc4c(F)cc(/C=C5\SC(=O)NC5=O)cc4F)n(-c4ccc(F)cc4)c32)ccc1Cl (stereo not shown) [Example 37]
(2) COc1cc(C2CCCc3nc(SCc4c(F)cc(OCCOCCOCCOCCO)cc4F)n(-c4ccc(F)cc4)c32)ccc1Cl (stereo not shown) [Example 23]
Identify the item whose pEC50 is the smaller number: 1 or 2 # reply format: chosen label
1

(A) COc1cc(C2CCCc3nc(SCc4c(F)cc(CCCO)cc4F)n(-c4ccc(F)cc4)c32)ccc1Cl (stereo not shown) [Example 41, trifluoroacetic acid]
(B) C=C1COC(c2ccc(F)c(OC)c2)c2c1nc(SCc1c(F)cccc1Cl)n2-c1ccc(F)cc1 (stereo not shown) [Example 138]
(C) COc1ccc(C2(C)CCCc3nc(SCc4c(F)cc(OCCN(C)C)cc4F)n(-c4ccc(F)cc4)c32)cc1OC (stereo not shown) [Example 108]
(D) COc1ccc(C2CCCc3nc(SCc4c(F)cc(C#N)cc4F)n(-c4ccc(F)cc4)c32)cc1OC (stereo not shown) [Example 64]
Sort these compounds on pEC50 so the largest reading comes first. The labels, placed in the requested order, form the answer.
D, C, A, B
(D: 6.82, C: 6.51, A: 6.05, B: 5.49)

(a) COc1cc(C2CCCc3nc(SCc4c(F)cc(CCC(=O)O)cc4F)n(-c4ccc(F)cc4)c32)ccc1Cl (stereo not shown) [Example 44, trifluoroacetic acid]
(b) COc1cc(C2(C)CCCc3nc(SCc4c(F)cc(OCCN(C)C)cc4F)n(-c4ccc(F)cc4)c32)ccc1Cl (stereo not shown) [Example 80]
(c) COc1cc(C2CCCc3nc(SCc4ncccc4F)n(-c4ccc(F)cc4)c32)ccc1Cl (stereo not shown) [Example 52, trifluoroacetic acid]
Parameters: sort_field (pEC50), sort_dir (desc). A ranking is expressed here by listing the labels in the requested order.
c, a, b

(P) COc1ccc(C2CCCc3nc(SCc4c(F)cc(C(=O)O)cc4F)n(-c4ccc(F)cc4)c32)cc1OC (stereo not shown) [Example 65]
(Q) COc1cc(C2CCCc3nc(SCc4c(Br)cncc4Br)n(-c4ccc(F)cc4)c32)ccc1Cl (stereo not shown) [Example 60]
(R) COc1cc(C2(C)CCCc3nc(SCc4c(F)cc(C(=O)O)cc4F)n(-c4ccc(F)cc4)c32)ccc1Cl (stereo not shown) [Example 81, trifluoroacetic acid]
(S) COc1cccc(C2CCCc3nc(SCc4c(F)cncc4F)n(-c4ccc(F)c(OC)c4)c32)c1 (stereo not shown) [Example 72]
Arrange these compounds by their pEC50, starting with the largest number. Please express your ranking as an ordered list of the labels.
S, R, P, Q

(a) COCCOCCOCCOCCNC(=O)c1cc(F)c(CSc2nc3c(n2-c2ccc(F)cc2)C(c2ccc(F)c(OC)c2)CCC3)c(F)c1 (stereo not shown) [Example 75]
(b) COc1cc(C2CCCc3nc(SCc4c(F)cc(OCCOCCOCCN(C)C)cc4F)n(-c4ccc(F)cc4)c32)ccc1Cl (stereo not shown) [Example 33, hydrochloride]
Of the two listed items, which has the higher pEC50? First: a Second: b Field: selected label. Fill in the label of the entry you choose.
a

(A) COc1cc(C2CCCc3nc(SCc4c(F)ccc(OCCOCCN(C)C)c4F)n(-c4ccc(F)cc4)c32)ccc1Cl (stereo not shown) [Example 35, hydrochloride]
(B) COc1cc(C2CCCc3nc(SCc4c(F)cc(CCCN(C)C)cc4F)n(-c4ccc(F)cc4)c32)ccc1Cl (stereo not shown) [Example 39b, trifluoroacetic acid]
From the recorded data, which exceeds the other in pEC50: A or B ? Field: selected label. Fill in the label of the entry you choose.
A
(A: 5.50, B: 4.79)

(I) COc1cc(C2CCCc3nc(SCc4c(F)ccc(OCCN(C)C)c4F)n(-c4ccc(F)cc4)c32)ccc1Cl (stereo not shown) [Example 31]
(II) COc1cc(C2CCCc3nc(SCc4c(F)cccc4Cl)n(-c4cc(F)c(F)c(F)c4)c32)ccc1Cl (stereo not shown) [Example 10]
Could you determine which record has the numerically smaller pEC50? Candidates: I and II The response must carry the label of the picked entry.
I

(1) COc1cc(C2CC(C)Cc3nc(SCc4c(F)cccc4Cl)n(-c4ccc(F)cc4)c32)ccc1Cl (stereo not shown) [Example 61]
(2) COc1ccc(C2(C)CCCc3nc(SCc4c(F)cc(CCN5CCOCC5)cc4F)n(-c4ccc(F)cc4)c32)cc1OC (stereo not shown) [Example 112]
Which shows the larger pEC50 value: 1 or 2 ? API: response body contains the label of the selected item.
2

---

biological target: TGR5 (NCI-H716 cell line) (Homo sapiens, UniProt Q8TDU6); test: NCI-H716 cAMP Agonist EC50 Determination
Sequence (Q8TDU6 whole entry): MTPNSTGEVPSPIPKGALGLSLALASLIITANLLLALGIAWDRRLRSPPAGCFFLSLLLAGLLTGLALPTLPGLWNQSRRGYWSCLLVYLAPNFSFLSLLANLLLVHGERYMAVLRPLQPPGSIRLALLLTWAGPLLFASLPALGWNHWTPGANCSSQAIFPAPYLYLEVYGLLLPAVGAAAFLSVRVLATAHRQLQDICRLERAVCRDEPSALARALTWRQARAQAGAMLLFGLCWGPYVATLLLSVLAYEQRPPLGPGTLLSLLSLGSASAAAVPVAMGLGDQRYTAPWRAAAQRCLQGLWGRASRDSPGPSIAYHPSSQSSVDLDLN
Structures can show the parent of a compound that is named as a salt.
Listing: EC50 of selected compounds

Worked examples follow.
COc1ccc(C2(C)CCCc3nc(SCc4ccccc4)n(-c4ccc(F)cc4)c32)cc1OC (centres unmarked)    33.1 µM
COc1cc(C2CCCc3nc(SCc4c(F)cncc4F)n(-c4ccc(F)cc4)c32)ccc1Cl (centres unmarked)    34.7 µM
COc1cc(C2CCCc3nc(SCc4c(F)cc(CCC#N)cc4F)n(-c4ccc(F)cc4)c32)ccc1Cl (centres unmarked)    > 50 µM

Supply measured EC50 of COc1cc(C2CCCc3nc(SCc4c(F)cc(S(=O)(=O)NS(C)(=O)=O)cc4F)n(-c4ccc(F)cc4)c32)ccc1Cl (centres unmarked) [Example 21b] in your reply.
> 50 µM

Return the recorded EC50 value; entry: COc1cc(C2CCCc3nc(SCc4c(F)cc(S(=O)(=O)NCCC[N+](C)(C)C)cc4F)n(-c4ccc(F)cc4)c32)ccc1Cl (centres unmarked) [Example 22, 2,2,2-trifluoroacetate]
> 50 µM

Give EC50 for the following compound: COc1cc(C2(C)CCCc3nc(SCc4c(F)cc(C(=O)N(C)C)cc4F)n(-c4ccc(F)cc4)c32)ccc1Cl (centres unmarked)
18.1 µM

Using the record for Cc1nc2ccc(C3OCCc4nc(SCc5c(F)cccc5Cl)n(-c5ccc(F)cc5)c43)cc2o1 (centres unmarked) , state its measured EC50.
11 µM

Please indicate EC50 recorded for COc1cc(C2CCCc3nc(SCc4c(F)cc(OCCOCCOCCOCCO)cc4F)n(-c4ccc(F)cc4)c32)ccc1Cl (centres unmarked)
> 50 µM

Tell me EC50 reported for COc1cc(C2CCCc3nc(SCc4c(F)cc(CCCO)cc4F)n(-c4ccc(F)cc4)c32)ccc1Cl (centres unmarked)
> 50 µM

Fill in EC50 for record C=C1COC(c2ccc(Cl)c(OC)c2)c2c1nc(SCc1c(F)cccc1Cl)n2-c1ccc(F)cc1 (centres unmarked)
> 50 µM

For the compound COc1cc(C2CCCc3nc(SCc4c(F)cc(OCc5nnn[nH]5)cc4F)n(-c4ccc(F)cc4)c32)ccc1Cl (centres unmarked) , report EC50.
> 50 µM

Give the reported EC50 for this compound. C/N=C(\N)N/N=C/CCc1cc(F)c(CSc2nc3c(n2-c2ccc(F)cc2)C(c2ccc(Cl)c(OC)c2)CCC3)c(F)c1 (centres unmarked) [Example 48, hydrochloride]
> 50 µM

Quickly give me recorded EC50 for CCOC(=O)CCc1cc(F)c(CSc2nc3c(n2-c2ccc(F)cc2)C(c2ccc(Cl)c(OC)c2)CCC3)c(F)c1 (centres unmarked)
> 50 µM

Indicate its recorded EC50; the compound in question is COc1cc(C2CCCc3nc(SCc4c(F)cc(C(=O)O)cc4F)n(-c4ccc(F)cc4)c32)ccc1Cl (centres unmarked)
> 50 µM
